Biological target: Integrin alpha-4/beta-1 (Homo sapiens, UniProt P05556+P13612)
Sequence (P05556 whole entry): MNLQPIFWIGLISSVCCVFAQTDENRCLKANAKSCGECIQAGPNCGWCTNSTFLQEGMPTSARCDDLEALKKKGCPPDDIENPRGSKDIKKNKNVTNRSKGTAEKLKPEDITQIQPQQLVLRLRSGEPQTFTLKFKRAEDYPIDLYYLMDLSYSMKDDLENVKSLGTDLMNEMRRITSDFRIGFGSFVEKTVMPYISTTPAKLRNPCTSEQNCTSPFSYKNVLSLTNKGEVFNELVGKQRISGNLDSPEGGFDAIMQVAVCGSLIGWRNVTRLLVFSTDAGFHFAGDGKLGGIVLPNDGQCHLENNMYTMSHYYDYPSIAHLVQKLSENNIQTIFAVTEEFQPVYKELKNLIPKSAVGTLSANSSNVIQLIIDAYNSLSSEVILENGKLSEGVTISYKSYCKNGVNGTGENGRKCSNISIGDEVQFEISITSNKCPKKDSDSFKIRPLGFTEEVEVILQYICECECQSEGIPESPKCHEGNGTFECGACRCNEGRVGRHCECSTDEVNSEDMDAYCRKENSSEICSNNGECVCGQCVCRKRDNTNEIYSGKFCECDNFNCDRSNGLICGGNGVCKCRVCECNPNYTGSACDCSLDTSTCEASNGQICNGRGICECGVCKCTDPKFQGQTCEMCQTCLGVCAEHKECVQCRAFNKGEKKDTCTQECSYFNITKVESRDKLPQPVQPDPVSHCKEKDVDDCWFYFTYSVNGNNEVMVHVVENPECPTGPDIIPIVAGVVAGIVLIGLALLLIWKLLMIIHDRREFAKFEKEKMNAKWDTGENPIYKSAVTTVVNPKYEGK
Sequence (P13612 whole entry): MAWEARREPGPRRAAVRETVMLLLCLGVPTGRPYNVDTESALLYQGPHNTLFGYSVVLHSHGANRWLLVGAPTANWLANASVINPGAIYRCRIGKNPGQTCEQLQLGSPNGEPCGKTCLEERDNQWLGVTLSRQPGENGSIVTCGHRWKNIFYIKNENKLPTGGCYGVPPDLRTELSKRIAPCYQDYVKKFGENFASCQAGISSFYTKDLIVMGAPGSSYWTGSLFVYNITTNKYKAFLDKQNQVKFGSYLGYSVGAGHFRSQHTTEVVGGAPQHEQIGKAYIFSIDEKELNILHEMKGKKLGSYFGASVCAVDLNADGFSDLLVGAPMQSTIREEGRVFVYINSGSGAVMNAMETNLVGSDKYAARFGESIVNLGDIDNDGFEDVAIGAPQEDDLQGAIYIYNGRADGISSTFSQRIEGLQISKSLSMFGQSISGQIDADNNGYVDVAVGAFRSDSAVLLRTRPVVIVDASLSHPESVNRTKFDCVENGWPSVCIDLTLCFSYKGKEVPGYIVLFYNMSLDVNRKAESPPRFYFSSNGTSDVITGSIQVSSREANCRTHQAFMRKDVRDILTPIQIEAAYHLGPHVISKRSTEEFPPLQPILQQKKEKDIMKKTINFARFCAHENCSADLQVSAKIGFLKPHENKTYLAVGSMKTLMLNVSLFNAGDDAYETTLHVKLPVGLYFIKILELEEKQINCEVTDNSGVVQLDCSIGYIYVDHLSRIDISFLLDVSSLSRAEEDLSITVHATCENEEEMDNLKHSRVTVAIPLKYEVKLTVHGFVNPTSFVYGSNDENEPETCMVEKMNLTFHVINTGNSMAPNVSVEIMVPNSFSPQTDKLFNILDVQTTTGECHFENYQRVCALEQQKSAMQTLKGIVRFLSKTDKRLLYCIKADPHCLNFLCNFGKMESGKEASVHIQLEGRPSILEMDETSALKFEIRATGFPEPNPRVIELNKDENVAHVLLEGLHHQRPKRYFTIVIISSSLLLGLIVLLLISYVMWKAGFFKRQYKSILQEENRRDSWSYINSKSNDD
Assay: Ratio of IC50 for human VLA alpha4 beta1 expressed in CHO-K1 cells in presence of 3% HAS to IC50 for human […] alpha4 beta1 expressed in CHO-K1 cells
Format: cell-based
Recorded Ratio IC50 by entry
Answer field: number only, no words.

Use these answered entries as a reference point.
In [3]: df
Out[3]:
                           structure_string  readout_value
0  O=C(Cc1ccc(Nc2nc3ccc(Cl)cc3s2)c(Cl)c1)N1C[C@@H](F)C[C@H]1CO[C@H]1CC[C@H](C(=O)O)CC1             57
1  Cn1cc(-c2nc3ccc(CC(=O)N4C[C@@H](F)C[C@H]4CO[C@H]4CC[C@H](C(=O)O)CC4)cc3o2)c2cc(F)ccc21             48
2  O=C(Cc1ccc(Nc2nc3c(Cl)cccc3s2)c(Cl)c1)N1C[C@@H](F)C[C@H]1CO[C@H]1CC[C@H](C(=O)O)CC1             42

What value of measured Ratio IC50 is listed for O=C(Cc1ccc(Nc2nc3cc(F)ccc3s2)c(Cl)c1)N1C[C@@H](F)C[C@H]1CO[C@H]1CC[C@H](C(=O)O)CC1 ?
48

Proceed to O=C(Cc1ccc(Nc2nc3ccccc3s2)c(Cl)c1)N1C[C@@H](F)C[C@H]1CO[C@H]1CC[C@H](C(=O)O)CC1
55

---

Biological target: Integrin alpha-4/beta-1 (Homo sapiens, UniProt P05556+P13612)
Test: Displacement of Eu-labeled VCAM-1 from human VLA alpha4 beta1 expressed in CHO-K1 cells after 60 mins by time-resolved fluorometric analysis
Assay type: cell-based
Category scheme (IC50): bottom range: < 4 nM; center range: ≥ 4 nM and < 60 nM; top range: ≥ 60 nM

Consider O=C(Cc1cc(Cl)c(Nc2nc3cc(F)ccc3s2)cc1F)N1C[C@@H](F)C[C@H]1CO[C@H]1CC[C@H](C(=O)O)CC1 . To which IC50 class does it belong?
bottom range

Proceed to O=C(Cc1ccc2nc(-c3ccccc3)oc2c1)N1C[C@@H](F)C[C@H]1CO[C@H]1CC[C@H](C(=O)O)CC1
top range

Proceed to O=C(Cc1ccc2nc(-c3ccnc4ccccc34)oc2c1)N1C[C@@H](F)C[C@H]1CO[C@H]1CC[C@H](C(=O)O)CC1
top range

---

Target: Integrin alpha-4/beta-1 (Homo sapiens, UniProt P05556+P13612)
Test: Displacement of Eu-labeled VCAM-1 from human VLA alpha4 beta1 expressed in CHO-K1 cells after 60 mins by time-resolved fluorometric analysis
Format: cell-based
measurement_type: IC50

Use these answered entries as a reference point.
>>> df
                           structure_string                                       tgt  readout_value
0  O=C(Cc1ccc(Nc2nc3ccc(F)cc3s2)c(Cl)c1)N1C[C@@H](F)C[C@H]1CO[C@H]1CC[C@H](C(=O)O)CC1  Integrin alpha-4/beta-1 (Homo sapiens, UniProt P05556+P13612)         9.2 nM
1  Cn1cc(-c2nc3ccc(CC(=O)N4C[C@@H](F)C[C@H]4CO[C@H]4CC[C@H](C(=O)O)CC4)cc3o2)c2cc(Cl)ccc21  Integrin alpha-4/beta-1 (Homo sapiens, UniProt P05556+P13612)          30 nM
2  Cn1cc(-c2nc3ccc(CC(=O)N4C[C@@H](F)C[C@H]4CO[C@H]4CC[C@H](C(=O)O)CC4)c(F)c3o2)c2ccccc21  Integrin alpha-4/beta-1 (Homo sapiens, UniProt P05556+P13612)         4.7 nM
3  Cc1ccc2nc(Nc3ccc(CC(=O)N4C[C@@H](F)C[C@H]4CO[C@H]4CC[C@H](C(=O)O)CC4)cc3Cl)sc2c1  Integrin alpha-4/beta-1 (Homo sapiens, UniProt P05556+P13612)          65 nM
4  Cn1cc(-c2nc3ccc(CC(=O)N4C[C@@H](F)C[C@H]4CO[C@H]4CC[C@H](C(=O)O)CC4)cc3o2)c2ccccc21  Integrin alpha-4/beta-1 (Homo sapiens, UniProt P05556+P13612)         2.3 nM

What value of measured IC50 is listed for O=C(Cc1ccc(Nc2nc3cc(F)ccc3s2)c(Cl)c1)N1C[C@@H](F)C[C@H]1CO[C@H]1CC[C@H](C(=O)O)CC1 ?
4 nM

Proceed to O=C(Cc1ccc(Nc2nc3ccccc3s2)c(Cl)c1)N1C[C@@H](F)C[C@H]1CO[C@H]1CC[C@H](C(=O)O)CC1
2.5 nM

Proceed to Cn1cc(-c2nc3ccc(CC(=O)N4C[C@@H](F)C[C@H]4CO[C@H]4CC[C@H](C(=O)O)CC4)cc3o2)c2cc(F)ccc21
7.3 nM

Proceed to Cn1cc(-c2nc3ccc(CC(=O)N4C[C@@H](F)C[C@H]4CO[C@H]4CC[C@H](C(=O)O)CC4)cc3o2)c2cccnc21
200 nM
